ED₂₅ overview
# target.entity: endothelium nitric oxide synthase (eNOS) (Rattus norvegicus, UniProt Q62600)
# Construct: from tissue; host or cells: living anesthetized rat
# assay.remarks: Blood pressure elevating activity in rat by inhibition of eNOS
# Format: in vivo
# settings: dose to elevate mean blood pressure by 25 mmHg; anesthetized rat, administered via femoral vein
outcome.measure: ED₂₅ (mg/kg)

>>> endpoint_value("Br.COC[C@@H]1CCSC(N)=N1")
0.15
>>> endpoint_value("Br.CCC[C@@H]1CCSC(N)=N1")
0.2
>>> endpoint_value("CCOC1CCSC(N)=N1 (stereo not shown)")
0.06
>>> endpoint_value("CCC[C@@H]1CCSC(N)=N1.Cl")
0.46

Data credit: patent EP0717040A1
